- Tested on: K562
- test.details: Antiproliferative activity against human K562 cells assessed as inhibition of cell proliferation incubated for 48 hrs by MTT assay
- Type: functional, cell-based
- study.conditions: K562, 48 h
attribute.measured: IC50 (µM)

Observe how each entry below is paired with its result.
{"columns": ["structure.notation", "result"],
 "data": [
  ["CCN(CC)C(=O)c1cncc(-c2ccc(C(=O)N[C@H]3CN[C@@H](C(=O)Nc4ccc(Cl)c(C(F)(F)F)c4)C3)cc2)c1", 55.5],
  ["Nc1ccc(-c2ccc(C(=O)N[C@H]3CN[C@@H](C(=O)Nc4ccc(Cl)c(C(F)(F)F)c4)C3)cc2)cn1", 9.13]
]}

I = O=C(NC1CC1)c1cncc(-c2ccc(C(=O)N[C@H]3CN[C@@H](C(=O)Nc4ccc(Cl)c(C(F)(F)F)c4)C3)cc2)c1
II = C[C@H](NC(=O)c1cccc(-c2ccc(NC(=O)C(C)(C)C)nc2)c1)C(=O)Nc1ccc(Cl)c(C(F)(F)F)c1
III = C[C@H](NC(=O)c1ccc(-c2ccc(N)nc2)cc1)C(=O)Nc1ccc(Cl)c(C(F)(F)F)c1
IV = C[C@H](NC(=O)c1ccc(-c2cncc(C(=O)NC3CC3)c2)cc1)C(=O)Nc1ccc(Cl)c(C(F)(F)F)c1
V = CC(=O)Nc1ccc(-c2cccc(C(=O)N[C@H]3CN[C@@H](C(=O)Nc4ccc(Cl)c(C(F)(F)F)c4)C3)c2)cn1
Input: Rank items: key IC50, increasing. Please list the labels in the order you were asked to rank them.
Output: III, V, II, I, IV
(III: 5.95 µM, V: 8.71 µM, II: 18.4 µM, I: 65.3 µM, IV: 396 µM)

A = CS(=O)(=O)Nc1ccc(-c2cccc(C(=O)N[C@H]3CN[C@@H](C(=O)Nc4ccc(Cl)c(C(F)(F)F)c4)C3)c2)cn1
B = CC(=O)Nc1ccc(-c2ccc(C(=O)N[C@@H](C)C(=O)Nc3ccc(Cl)c(C(F)(F)F)c3)cc2)cn1
Input: Could you kindly indicate whether A or B has the higher IC50 value? Identify your pick by its label.
Output: B

P = CN(C)CCNC(=O)c1cncc(-c2cccc(C(=O)N[C@H]3CN[C@@H](C(=O)Nc4ccc(Cl)c(C(F)(F)F)c4)C3)c2)c1
Q = CS(=O)(=O)Nc1ccc(-c2ccc(C(=O)N[C@H]3CN[C@@H](C(=O)Nc4ccc(Cl)c(C(F)(F)F)c4)C3)cc2)cn1
Input: Sorting ascending by IC50, which comes first: P or Q ? // caller expects the label of the chosen entry
Output: P
(P: 19.8 µM, Q: 45 µM)

A = CCN(CC)C(=O)c1cncc(-c2ccc(C(=O)N[C@@H](C)C(=O)Nc3ccc(Cl)c(C(F)(F)F)c3)cc2)c1
B = C[C@H](NC(=O)c1cccc(-c2ccc(NS(C)(=O)=O)nc2)c1)C(=O)Nc1ccc(Cl)c(C(F)(F)F)c1
C = C[C@H](NC(=O)c1cccc(-c2ccc(N)nc2)c1)C(=O)Nc1ccc(Cl)c(C(F)(F)F)c1
Input: Ordering: ascending IC50. Use the labels to give the requested order.
Output: B, C, A

###

- measured.target: Bcr/Abl fusion protein (Homo sapiens, UniProt P00519)
- Sequence (P00519 whole entry, the tested form may be a part): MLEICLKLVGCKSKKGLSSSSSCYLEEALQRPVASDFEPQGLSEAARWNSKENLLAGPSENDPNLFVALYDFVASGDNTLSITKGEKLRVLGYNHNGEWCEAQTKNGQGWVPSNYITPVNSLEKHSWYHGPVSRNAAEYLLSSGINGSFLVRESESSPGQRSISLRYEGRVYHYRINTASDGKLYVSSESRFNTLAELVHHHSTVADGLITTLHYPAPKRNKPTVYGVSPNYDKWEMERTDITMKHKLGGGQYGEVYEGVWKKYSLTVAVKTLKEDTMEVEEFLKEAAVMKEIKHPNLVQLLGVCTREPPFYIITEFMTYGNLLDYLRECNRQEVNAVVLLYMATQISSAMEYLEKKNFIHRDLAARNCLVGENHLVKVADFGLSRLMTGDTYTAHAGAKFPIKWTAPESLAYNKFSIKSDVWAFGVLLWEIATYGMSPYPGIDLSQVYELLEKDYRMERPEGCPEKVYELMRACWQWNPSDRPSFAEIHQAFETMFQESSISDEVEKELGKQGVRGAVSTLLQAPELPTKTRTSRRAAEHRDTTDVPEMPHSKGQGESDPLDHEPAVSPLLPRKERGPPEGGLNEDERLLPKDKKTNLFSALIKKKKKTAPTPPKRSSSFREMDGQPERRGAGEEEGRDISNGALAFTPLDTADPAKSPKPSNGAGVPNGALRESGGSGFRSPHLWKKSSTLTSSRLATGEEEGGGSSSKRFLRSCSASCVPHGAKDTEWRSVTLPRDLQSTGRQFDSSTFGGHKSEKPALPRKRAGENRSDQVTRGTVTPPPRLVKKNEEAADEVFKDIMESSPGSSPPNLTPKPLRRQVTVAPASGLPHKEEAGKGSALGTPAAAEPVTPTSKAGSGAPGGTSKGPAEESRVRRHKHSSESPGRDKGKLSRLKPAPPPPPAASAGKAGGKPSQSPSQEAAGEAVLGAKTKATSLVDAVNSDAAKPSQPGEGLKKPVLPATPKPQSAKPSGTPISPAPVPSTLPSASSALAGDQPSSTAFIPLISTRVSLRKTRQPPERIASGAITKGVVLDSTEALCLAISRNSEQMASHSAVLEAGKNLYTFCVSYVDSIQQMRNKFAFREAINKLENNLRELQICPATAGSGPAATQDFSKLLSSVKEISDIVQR
- Sequence (P11274 whole entry, further chain, the tested form may be a part): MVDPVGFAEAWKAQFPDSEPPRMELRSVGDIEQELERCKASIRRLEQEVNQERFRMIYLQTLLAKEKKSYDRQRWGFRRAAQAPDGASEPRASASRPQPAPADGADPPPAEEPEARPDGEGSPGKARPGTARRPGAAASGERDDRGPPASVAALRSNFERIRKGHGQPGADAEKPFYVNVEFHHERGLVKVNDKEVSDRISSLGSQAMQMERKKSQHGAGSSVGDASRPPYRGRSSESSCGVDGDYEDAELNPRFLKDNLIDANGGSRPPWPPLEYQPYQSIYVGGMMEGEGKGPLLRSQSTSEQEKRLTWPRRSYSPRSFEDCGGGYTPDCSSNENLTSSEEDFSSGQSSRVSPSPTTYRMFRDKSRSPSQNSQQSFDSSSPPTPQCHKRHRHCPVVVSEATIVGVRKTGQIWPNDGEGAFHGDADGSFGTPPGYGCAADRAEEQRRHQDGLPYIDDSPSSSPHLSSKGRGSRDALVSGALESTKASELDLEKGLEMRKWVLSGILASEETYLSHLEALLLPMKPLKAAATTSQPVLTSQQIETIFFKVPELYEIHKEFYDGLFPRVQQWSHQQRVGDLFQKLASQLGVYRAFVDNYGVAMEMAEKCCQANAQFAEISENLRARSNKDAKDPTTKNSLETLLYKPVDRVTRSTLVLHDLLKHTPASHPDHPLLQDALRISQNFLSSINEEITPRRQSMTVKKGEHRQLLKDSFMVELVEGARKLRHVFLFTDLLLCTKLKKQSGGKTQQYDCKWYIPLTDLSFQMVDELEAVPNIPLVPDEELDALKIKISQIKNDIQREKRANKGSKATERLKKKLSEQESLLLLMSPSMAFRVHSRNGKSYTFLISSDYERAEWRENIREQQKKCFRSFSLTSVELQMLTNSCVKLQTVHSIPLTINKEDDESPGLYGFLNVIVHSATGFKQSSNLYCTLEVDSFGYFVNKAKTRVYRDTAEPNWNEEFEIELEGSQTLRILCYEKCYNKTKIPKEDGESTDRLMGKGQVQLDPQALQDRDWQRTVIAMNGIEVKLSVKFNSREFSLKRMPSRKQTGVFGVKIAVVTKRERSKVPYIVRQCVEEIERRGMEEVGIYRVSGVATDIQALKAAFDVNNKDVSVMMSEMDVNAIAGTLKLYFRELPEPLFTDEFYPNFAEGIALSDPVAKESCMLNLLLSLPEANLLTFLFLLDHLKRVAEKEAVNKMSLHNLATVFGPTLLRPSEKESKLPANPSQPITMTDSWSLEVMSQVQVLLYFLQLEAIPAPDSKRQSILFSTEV
- test.details: Inhibition of wild type Bcr-Abl (unknown origin) incubated for 1 hr in presence of ATP by ADP-Glo kinase assay
pIC50: −log10 of the molar value.
attribute.measured: pIC50

{"columns": ["structure.notation", "pIC50"],
 "data": [
  ["Nc1ccc(-c2ccc(C(=O)N[C@H]3CN[C@@H](C(=O)Nc4ccc(Cl)c(C(F)(F)F)c4)C3)cc2)cn1", 5.04],
  ["CS(=O)(=O)Nc1ccc(-c2ccc(C(=O)N[C@H]3CN[C@@H](C(=O)Nc4ccc(Cl)c(C(F)(F)F)c4)C3)cc2)cn1", 6.82],
  ["C[C@H](NC(=O)c1ccc(-c2cncc(C(=O)NC3CC3)c2)cc1)C(=O)Nc1ccc(Cl)c(C(F)(F)F)c1", 5.03],
  ["CCN(CC)C(=O)c1cncc(-c2ccc(C(=O)N[C@@H](C)C(=O)Nc3ccc(Cl)c(C(F)(F)F)c3)cc2)c1", 7.96],
  ["C[C@H](NC(=O)c1cccc(-c2ccc(NS(C)(=O)=O)nc2)c1)C(=O)Nc1ccc(Cl)c(C(F)(F)F)c1", 5.48]
]}

A = CC(C)(C)C(=O)Nc1ccc(-c2cccc(C(=O)N[C@H]3CN[C@@H](C(=O)Nc4ccc(Cl)c(C(F)(F)F)c4)C3)c2)cn1
B = CC(=O)Nc1ccc(-c2cccc(C(=O)N[C@@H](C)C(=O)Nc3ccc(Cl)c(C(F)(F)F)c3)c2)cn1
Input: When A and B are compared, which has the higher number for pIC50? Select an item and report its label.
Output: B
(B: 6.22, A: 5.33)
